system: T-47D breast; assay: NCI-60 one-dose screen, 48 h (100 = growth as untreated, 0 = no growth, -100 = all killed); conditions: 10 µM unless noted
This is part of a sample that, as a whole, favours compounds with a hit. Of some 83,000 tested, about 20% had one in any assay.
Grouping rule (growth): small value: < 50%; mid value: ≥ 50% and < 80%; large value: ≥ 80%

{"compound": "CC[C@H](C)[C@H](NC(=O)[C@H]1CCCCN1C)C(=O)N(C)[C@H](CCc1nc(C(=O)N[C@@H](Cc2ccccc2)C[C@H](C)C(=O)O)cs1)C(C)C", "targetSystem": "T-47D breast", "answerLabel": "mid value"}
{"compound": "COc1ccc2c(c1)c(-c1nc(-c3c[nH]c4ncccc34)cs1)cn2CCCCN1CCOCC1", "targetSystem": "T-47D breast", "answerLabel": "small value"}
{"compound": "CCN1C(=O)NC(=O)C(C)(N2C(=O)c3c(F)c(F)c(F)c(F)c3C2=O)C1=O (stereo not given)", "targetSystem": "T-47D breast", "answerLabel": "small value"}
{"compound": "O=S(=O)(F)c1cccc(Cl)c1C[P+](c1ccccc1)(c1ccccc1)c1ccccc1", "targetSystem": "T-47D breast", "answerLabel": "large value"}
{"compound": "C=CCOC(=O)C(Br)CC (stereo not given)", "targetSystem": "T-47D breast", "answerLabel": "large value"}
{"compound": "CNC(=O)Oc1ccc(Cl)cc1SSc1cc(Cl)ccc1OC(=O)NC", "targetSystem": "T-47D breast", "answerLabel": "mid value"}
{"compound": "Oc1ccc(O)c(Cl)c1", "targetSystem": "T-47D breast", "answerLabel": "large value"}
{"compound": "N#CC(NC(=O)CCl)=C(Cl)Cl", "targetSystem": "T-47D breast", "answerLabel": "small value"}
{"compound": "c1ccc2c(c1)O[As](O[As]1Oc3ccccc3O1)O2", "targetSystem": "T-47D breast", "answerLabel": "small value"}

###

Test system: T-47D breast
Experiment: NCI-60 one-dose screen, 48 h (100 = growth as untreated, 0 = no growth, -100 = all killed)
Settings: 10 µM unless noted
Procedure: Growth inhibition of the T-47D human tumor cell line is measured as a screen for anti-cancer activity. Cells are grown in 96 well plates and exposed to the test compound for 48 hours. Compounds are tested at a single concentration, which is 10^-5 M for most compounds. The reported endpoint is percent growth (GI% or GIPRCNT), where numbers from 0 - 100% represent growth inhibition, and numbers from -100% - 0 represent cell death. For example, a value of 40 represents 60% growth inhibition. […]
This is part of a sample that, as a whole, favours compounds with a hit. Of some 83,000 tested, about 20% had one in any assay.
Each entry below lists one item and its recorded growth value.

{"compound": "C/C(=C\\c1ccn(-c2ccc(N)c(C(F)(F)F)c2)n1)[C@@H]1C[C@@H]2O[C@]2(C)CCC[C@H](C)[C@H](O)[C@@H](C)C(=O)C(C)(C)[C@@H](O)CC(=O)O1", "unitInfo": "%", "growth": 47.6}
{"compound": "NC(N)=NC(N)=Nc1ccc(Cl)cc1", "unitInfo": "%", "growth": 109}
{"compound": "CCOC(=O)c1cncn1C(C)c1ccccc1 (centres undefined)", "unitInfo": "%", "growth": 105}
{"compound": "O=C1NC(=O)C(=C/C=C/c2ccccc2)C(=O)N1", "unitInfo": "%", "growth": 32.2}
{"compound": "CC1(C)N(Nc2ccccc2)C(=O)C2CCCN21 (centres undefined)", "unitInfo": "%", "growth": 56.8}
{"compound": "O=[N+]([O-])c1cc(Br)c(O)c(Br)c1", "unitInfo": "%", "growth": 115}
{"compound": "C[Se]/C=C1/C(=O)N(c2c(Cl)cccc2Cl)c2ccccc21", "unitInfo": "%", "growth": 65.8}
{"compound": "C[C@]12C[C@H](c3ccoc3)OC(=O)[C@H]1CC[C@@]1(C)[C@@H]2[C@H]2C=C[C@]1(O)C(=O)O2", "unitInfo": "%", "growth": 103}
{"compound": "CO[C@H]1[C@H](O[C@@H]2C[C@@H]3C/C=C/C(=O)O[C@@H](CO)C[C@H](O)[C@@H]4C[C@H](C)[C@H](C/C=C\\C=C\\[C@H](C)C[C@H](C2)O3)O4)O[C@@H](C)[C@H](O)[C@H]1O", "unitInfo": "%", "growth": 20.8}

###

test system: TK-10 renal; experiment: NCI-60 one-dose screen, 48 h; conditions: 10 µM unless noted
Compounds without any hit were thinned out: in the full panel of roughly 83,000, 20% have a hit. The source made the active and inactive calls. Rule for the calls: active = growth percent below 10; inactive = the rest.
Outcomes: label 1 for active, label 0 for inactive

{"molecule": "C[C@]12CCc3sc(Nc4ccc(F)cc4)nc3C1=CC[C@@H]1[C@@H]2CC[C@]2(C)C(=O)CC[C@@H]12", "answerLabel": "label 0"}
{"molecule": "COc1cc2c(cc1OC)[C@@H]1C(=O)c3ccc4c(c3O[C@@H]1CO2)C[C@H](C(C)C)O4", "answerLabel": "label 0"}
{"molecule": "CCC(Br)(CC)C(=O)NC(N)=O", "answerLabel": "label 0"}
{"molecule": "COC12CC3C4=CCOC5CC(=O)N6c7ccccc7C1(CCN2C4)C6C53 (stereo not drawn)", "answerLabel": "label 0"}
{"molecule": "CN1C2CCC1[C@@H](COC(=O)c1ccccc1)[C@@H](O)C2 (stereo partly drawn)", "answerLabel": "label 0"}
{"molecule": "N#CCN(CC#N)[N+](=O)[O-]", "answerLabel": "label 0"}
{"molecule": "COC1C(O)CC(OC2CC(Oc3cc4cc5c(c(O)c4c(O)c3C)C(=O)[C@@H](OC3CC(OC4CC(OC6CC(C)(O)C(OC(C)=O)C(C)O6)C(O)C(C)O4)C(O)C(C)O3)[C@H]([C@H](OC)C(=O)[C@@H](O)[C@@H](C)O)C5)OC(C)C2OC(C)=O)OC1C (stereo partly drawn)", "answerLabel": "label 1"}
{"molecule": "C[C@]12CC[C@@H](OC(=O)N(CCCl)N=O)C[C@@H]1CC[C@@H]1[C@@H]2CC[C@]2(C)C(=O)CC[C@@H]12", "answerLabel": "label 0"}

###

Each entry below lists one item and its recorded growth value.
test system: NCI-H460 lung; assay: NCI-60 one-dose screen, 48 h (100 = growth as untreated, 0 = no growth, -100 = all killed); conditions: 10 µM unless noted
The panel holds about 83,000 compounds, 20% with a hit somewhere; the sample as a whole holds those more often.
measurementKind: growth (%)

{"compound": "O=P(O)(Nc1ccccc1)Nc1ccccc1", "targetSystem": "NCI-H460 lung", "resultValue": 99.2}
{"compound": "O=C1c2ccccc2C(=O)N1N1CC1c1ccccc1 (configuration not stated)", "targetSystem": "NCI-H460 lung", "resultValue": 111}
{"compound": "Cc1cc[c-]cc1.Fc1c[c-]c(-c2ccccn2)c(F)c1.N#CCC[PH+](CCC#N)c1ccccc1.[Pt+2]", "targetSystem": "NCI-H460 lung", "resultValue": 43.1}
{"compound": "CC1=CC(=O)CCC12CCOC2=O (configuration not stated)", "targetSystem": "NCI-H460 lung", "resultValue": 102}
{"compound": "O=S(=O)(c1ccc(O)cc1)c1ccccc1O", "targetSystem": "NCI-H460 lung", "resultValue": 105}
{"compound": "C[C@]12CCc3sc(Nc4ccc(F)cc4F)nc3C1=CC[C@@H]1[C@@H]2CC[C@]2(C)C(=O)CC[C@@H]12", "targetSystem": "NCI-H460 lung", "resultValue": 60.9}
{"compound": "CCOP(=O)(NC)OCC", "targetSystem": "NCI-H460 lung", "resultValue": 104}
{"compound": "CC1(C)N(Nc2ccccc2)C(=O)C2CCCN21 (configuration not stated)", "targetSystem": "NCI-H460 lung", "resultValue": 99.8}
{"compound": "C[N+]12CCC34C5=CC(=O)C(=O)C=C5[N+]5(C)C(=O)CC6OCC=C(C1)C(CC32)C6C45 (configuration not stated)", "targetSystem": "NCI-H460 lung", "resultValue": 105}
{"compound": "Cc1ccc(C(=O)O[C@H](C(=O)O)[C@H](OC(=O)c2ccc(C)cc2)C(=O)O)cc1", "targetSystem": "NCI-H460 lung", "resultValue": 115}
{"compound": "Cc1ccc(N2CCN(CCC#N)CC2)cc1", "targetSystem": "NCI-H460 lung", "resultValue": 97.7}
{"compound": "COC1C(O)CC(OC2CC(Oc3cc4cc5c(c(O)c4c(O)c3C)C(=O)[C@@H](OC3CC(OC4CC(OC6CC(C)(O)C(OC(C)=O)C(C)O6)C(O)C(C)O4)C(O)C(C)O3)[C@H]([C@H](OC)C(=O)[C@@H](O)[C@@H](C)O)C5)OC(C)C2OC(C)=O)OC1C (some centres not stated)", "targetSystem": "NCI-H460 lung", "resultValue": -25.7}
{"compound": "Nc1ccc2c(c1)Cc1cc(N)ccc1-2", "targetSystem": "NCI-H460 lung", "resultValue": 93.1}
{"compound": "NC(=O)c1c(Br)c(Br)c(Br)c(Br)c1C(=O)O (tested in a mixture with another compound)", "targetSystem": "NCI-H460 lung", "resultValue": 111}
{"compound": "O=C(O)CNCP(=O)(O)O", "targetSystem": "NCI-H460 lung", "resultValue": 119}
{"compound": "COC(=O)C1=CO[C@@H](C)[C@@H]2CN3CCc4c([nH]c5cc(OC)ccc45)[C@@H]3C[C@H]12", "targetSystem": "NCI-H460 lung", "resultValue": 99.7}
{"compound": "O=C(CBr)OCCOC(=O)CBr", "targetSystem": "NCI-H460 lung", "resultValue": 95}
{"compound": "O=C1NC(=O)C(=C/C=C/c2ccccc2)C(=O)N1", "targetSystem": "NCI-H460 lung", "resultValue": 33.1}
{"compound": "C[N+]1(C)CCCC1c1cccnc1 (configuration not stated)", "targetSystem": "NCI-H460 lung", "resultValue": 108}
{"compound": "COc1cc2c(cc1OC)-c1c3c(cc4c1[C@@H](C2)N(C)CC4)OCO3", "targetSystem": "NCI-H460 lung", "resultValue": 17.3}
{"compound": "O=C(O)C(F)F", "targetSystem": "NCI-H460 lung", "resultValue": 89.2}
{"compound": "O=NN1CCCCC1", "targetSystem": "NCI-H460 lung", "resultValue": 116}

Data provenance: PubChem BioAssay (NCI)
